Attribution: ChEMBL document CHEMBL5053510

Experiment: Half life in mouse at 2 mg/kg, iv
Assay type: ADME, organism-based
Settings: in vivo
EXPERIMENTAL READOUT: half-life (h)
I only need the number, in h, no unit after it.

stdin: For the compound Nc1nc(-c2cccc(-n3ccc4cc(C5CC5)cc(F)c4c3=O)c2CO)c2cc(C3=CCN(C4COC4)CC3)[nH]c2n1 [MILREBRUTINIB] , give its measured half-life value.
stdout: 1.12

* * *

Biological target: Cytochrome P450 2C19 (Homo sapiens)
Sequence (P33261 whole entry): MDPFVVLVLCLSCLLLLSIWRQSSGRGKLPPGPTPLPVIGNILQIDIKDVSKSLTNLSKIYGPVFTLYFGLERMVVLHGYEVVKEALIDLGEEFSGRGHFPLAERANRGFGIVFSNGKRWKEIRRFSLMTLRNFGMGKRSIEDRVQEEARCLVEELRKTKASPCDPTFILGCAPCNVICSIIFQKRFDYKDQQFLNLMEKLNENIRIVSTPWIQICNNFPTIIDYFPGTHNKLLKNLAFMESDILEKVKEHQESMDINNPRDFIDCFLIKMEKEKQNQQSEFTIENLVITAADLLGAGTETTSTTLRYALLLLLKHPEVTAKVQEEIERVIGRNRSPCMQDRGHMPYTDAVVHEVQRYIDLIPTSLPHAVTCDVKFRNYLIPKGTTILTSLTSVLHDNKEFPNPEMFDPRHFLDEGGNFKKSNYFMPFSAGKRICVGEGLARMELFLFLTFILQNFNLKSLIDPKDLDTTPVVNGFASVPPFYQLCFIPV
pIC50: −log10 of the molar value.
EXPERIMENTAL READOUT: pIC50

stdin: State measured pIC50 of the compound Nc1nc(-c2cccc(-n3ccc4cc(C5CC5)cc(F)c4c3=O)c2CO)c2cc(C3=CCN(C4COC4)CC3)[nH]c2n1 [MILREBRUTINIB] with Cytochrome P450 2C19 (Homo sapiens).
stdout: < 5.00
